assay: Cycloheximide Counterscreen for Small Molecule Inhibitors of Shiga Toxin; details: cell reporter, cycloheximide protein synthesis inhibition counterscreen; hits give high values; further: read at 38.3 µM for the half of the compounds with a filed dose; 0% is about no effect
Out of some 300,000 compounds screened, about 37,000 (12%) were called active. Only a selection was taken, and actives are over-represented in it overall.
assay-metric: max response (%)
The response must be a number in % with no trailing unit.

COc1ccc(CCNC(=O)c2ccc(CS(=O)(=O)c3ccc(Br)cc3)o2)cc1OC ... 10.1

Entry COC1=C(N2CCOCC2)C(=O)c2ccccc2C1=O has what max response?
0.793

Entry COC(=O)c1cc(OC)c(OC)cc1NC(=O)CSc1ccc(C)cc1 has what max response?
-2.51

Entry Fc1ccc(Cl)cc1-c1nc(Nc2ccncc2)c2nccnc2n1 has what max response?
1.12

Entry COc1ccc(NC(=O)C2CCC(CNC(=O)[C@@H]3Cc4ccccc4CN3)CC2)cc1 (stereo partly specified) has what max response?
15.5

Entry CC1CC(C)CN(CCOc2cccc3ccccc23)C1 (stereo unspecified) has what max response?
-3.88

Entry Cc1ccc(S(=O)(=O)N2CCN(C(=O)CSc3cc(C)ccc3C)CC2)c(C)c1 has what max response?
12.6

Entry Cc1cc(Cl)ccc1C(=O)C1CCCN(C(=O)CCN2CCCO2)C1 (stereo unspecified) has what max response?
-2.88

Entry COc1cc(SC#N)ccc1N=Cc1c(C)[nH]n(-c2ccc(C)cc2)c1=O has what max response?
-1.77

Entry CCOc1ccc(C(=O)Nc2c3c(nn2-c2ccccc2)CS(=O)(=O)C3)cc1 has what max response?
-1.43

Entry CCCCSCCCNC(=O)C1CCC(CNS(=O)(=O)c2ccc(NC(C)=O)cc2)CC1 (stereo unspecified) has what max response?
0.78

###

assay: Cycloheximide Counterscreen for Small Molecule Inhibitors of Shiga Toxin; conditions: cell reporter, cycloheximide protein synthesis inhibition counterscreen; further: read at 38.3 µM for the half of the compounds with a filed dose; 0% is about no effect
About 37,000 (12%) of roughly 300,000 compounds were called active. Cut-off read from the data, not from the text of the source: active = max response mostly above about 13% (no sharp cut-off); inactive = mostly below about 14%. Shown is part of a subset that was picked to be rich in actives.
Bench note: report the call from True (active), False (inactive)

CC(C)Nc1ccc(-n2nc3ccccc3[n+]2[O-])cc1 ... True
O=C1CN(C(=O)c2ccccc2F)C(c2ccc(F)cc2)c2cc(F)ccc2N1 (configuration not stated) ... False
Cc1ccc(C)c(N2CCN(S(=O)(=O)c3c(C)[nH]c(C)c3C(=O)N3CCCC3)CC2)c1 ... False
O=C(Nc1cccc(Cl)c1Cl)c1ccccc1NC(=O)C1CC=CCC1C(=O)O (configuration not stated) ... True
COc1ccc(OCc2cn3c(C)cc(C)nc3n2)cc1 ... False

Could you please tell me the result logged for Cc1ccc(S(=O)(=O)N(CC(=O)NCCSC2CCCCC2)c2ccccc2F)cc1 in this assay?
False

Could you please tell me the result logged for CCCCn1nc(C(=O)Nc2ccc(S(=O)(=O)Nc3ncccn3)cc2)c2ccccc2c1=O in this assay?
False

Could you please tell me the result logged for Cc1ccc(N2C(=O)CC(Sc3ncn[nH]3)C2=O)cc1 (configuration not stated) in this assay?
False

Could you please tell me the result logged for CCOC(=O)N1CCN(C(=O)CNC(=O)Cc2ccc(Cl)cc2)CC1 in this assay?
False

Could you please tell me the result logged for CCN1CCN(C(=O)CCN2C(=O)c3ccccc3C2=O)CC1 in this assay?
False

Could you please tell me the result logged for O=C(NCc1cc(F)cc(C(F)(F)F)c1)C1CCC(=O)N(C2CCCC2)C1 (configuration not stated) in this assay?
False

Could you please tell me the result logged for O=C(CCc1ccccc1)Nc1ccnn1C1CCN(Cc2ccc(OCCO)cc2)CC1 in this assay?
False

Could you please tell me the result logged for Nn1c(SCc2ccccc2)nnc1C1CCCCC1 in this assay?
True

Could you please tell me the result logged for O=C(NC1CCCC1)C1CCN(C(=O)Nc2cccc(Cl)c2)CC1 in this assay?
False

Could you please tell me the result logged for COC(=O)c1ccc(NC(=O)c2cc3c(CO)cnc(C)c3oc2=Nc2cccc(C(N)=O)c2)cc1 in this assay?
False

Could you please tell me the result logged for O=C(c1cccs1)N(Cc1cc2ccccc2[nH]c1=O)CC1CCCO1 (configuration not stated) in this assay?
False

Could you please tell me the result logged for COc1ccccc1N1CC(C(=O)Nc2nnc(SCC(=O)NCC3CCCO3)s2)CC1=O (configuration not stated) in this assay?
False

Could you please tell me the result logged for CCc1ccc(OCC(=O)N(Cc2ccccc2)C2CCS(=O)(=O)C2)cc1 (configuration not stated) in this assay?
False

Could you please tell me the result logged for O=S(=O)(Nc1nccs1)c1ccc2c(c1)OCCO2 in this assay?
False

Could you please tell me the result logged for CC(=O)NC1=NN(C(C)=O)C(C)(c2ccc(C)cc2)S1 (configuration not stated) in this assay?
False

Could you please tell me the result logged for Cc1cccc(CSc2nnc(C)c(=O)n2N)c1 in this assay?
False

Could you please tell me the result logged for Cc1ccc(S(=O)(=O)N(NC2=NS(=O)(=O)c3ccccc32)C(=O)c2ccccc2)cc1 in this assay?
False

###

assay: Cycloheximide Counterscreen for Small Molecule Inhibitors of Shiga Toxin; details: cell reporter, cycloheximide protein synthesis inhibition counterscreen; further: read at 38.3 µM for the half of the compounds with a filed dose; 0% is about no effect
Out of some 300,000 compounds screened, about 37,000 (12%) were called active. No stated cut-off is given here; in the data, active means max response mostly above about 13% (no sharp cut-off); inactive means mostly below about 14%. The sample holds actives, similar compounds and a random draw of the others, so the mix is not that of the screen.
Bench note: report the call from active, inactive

Cc1ccccc1CNC(=O)CCC(=O)N1Cc2ccccc2Oc2ncccc21 ... inactive
O=C1CCCN1CCCNC(=S)Nc1ccc(F)c(Cl)c1 ... inactive
CCN(C(=O)Cc1nc(N)n[nH]1)C1(C(=O)Nc2ccccc2)CCCCC1 ... inactive
COc1ccc(Oc2coc3cc(OC(=O)c4cncc(Br)c4)ccc3c2=O)cc1 ... inactive
Cc1ccc(S(=O)(=O)N(CC(=O)Nc2cccnc2)c2ccc(Br)cc2)cc1 ... inactive
COc1cccc(C(=O)Nc2cc3c(cc2Br)OCCCO3)c1 ... active
CSc1ccc(CNC(=O)c2ccc(NC(=O)C3=CSCCO3)cc2)cc1 ... inactive
COc1ccc(OC)c(CNC(=O)Cn2nc(C)c3c(C)n(-c4ccc(C)cc4)nc3c2=O)c1 ... inactive
O=C(Nc1ccc(C(=O)NCc2ccccc2Cl)cc1)C1=CSCCO1 ... active
CCc1ccc(Oc2coc3cc(O)ccc3c2=O)cc1 ... active

Could you please tell me the result logged for CC(C)(C)[C@H]1C=C(C(=O)NCc2ccccc2)O[C@@H](OCc2ccc(CO)cc2)C1 in this assay?
inactive

Could you please tell me the result logged for CCc1ccc(Oc2coc3cc(OC(=O)c4cc5ccccc5oc4=O)ccc3c2=O)cc1 in this assay?
inactive

Could you please tell me the result logged for CC(=O)Oc1cccc(C(=O)Nc2ccccc2NC(=O)c2cccc(OC(C)=O)c2)c1 in this assay?
inactive

Could you please tell me the result logged for COc1ccccc1C(=O)NCc1nnc(SC(C)C(=O)Nc2nccs2)n1C (configuration not stated) in this assay?
inactive

Could you please tell me the result logged for CCCCN(Cc1ccccc1)C(=O)C1CCN(Cc2sccc2C)CC1 in this assay?
inactive

Could you please tell me the result logged for COc1cccc(C(=O)NNS(=O)(=O)c2ccc(F)cc2)c1 in this assay?
inactive

Could you please tell me the result logged for CCCCNC(=S)N/N=C1\CCCCc2ccccc21 in this assay?
inactive

Could you please tell me the result logged for COc1ccc(CN(C)C(C)C(=O)NC2CCCc3ccccc32)cc1 (configuration not stated) in this assay?
inactive

Could you please tell me the result logged for COc1cc(CO)c(C2(CO)CCCC2)cc1OC in this assay?
inactive

Could you please tell me the result logged for Cn1c(N)c(C(=O)COC(=O)C23CC4CC(CC(C4)C2)C3)c(=O)n(C)c1=O in this assay?
inactive

Could you please tell me the result logged for Cc1c(C)c2ccc(OCC(=O)N3CCN(c4cccc(Cl)c4)CC3)cc2oc1=O in this assay?
inactive

Could you please tell me the result logged for O=S(=O)(Cc1noc(-c2ccc(OC(F)(F)F)cc2)n1)c1ccc(F)cc1 in this assay?
active

###

Listing of entries alongside the reported max response.
assay: Cycloheximide Counterscreen for Small Molecule Inhibitors of Shiga Toxin; conditions: cell reporter, cycloheximide protein synthesis inhibition counterscreen; hits give high values; further: read at 38.3 µM for the half of the compounds with a filed dose; 0% is about no effect
Out of some 300,000 compounds screened, about 37,000 (12%) were called active. Shown is part of a subset that was picked to be rich in actives.
The response must be a number in % with no trailing unit.

Worked examples follow.
COc1ccc(NC(=O)c2cc(-c3cc(OC)c(OC)c(OC)c3)nc3ccccc23)c(OC)c1 ... -6.98
COc1ccc(Cc2nnc(NC(=O)c3ccc(OC)cc3OC)s2)cc1 ... 31.5
O=C(NC1=NCCS1)c1ccc(Cl)s1 ... 66.8
COc1ccc(Cc2nnc(NC(=O)c3cc(OC)c(OC)c(OC)c3)s2)cc1OC ... -3.75
COc1ccc(Cc2nnc(NC(=O)Cc3cccs3)s2)cc1 ... 12.7
NC(=O)C(Cc1ccccc1)NC(=O)C12CC3CC(CC(C3)C1)C2 (stereo unspecified) ... 0.275
COc1ccc(C(=O)NC2=NCCS2)c(OC)c1 ... 32.6
COc1ccc(C(=O)Nc2nncs2)c(OC)c1 ... 34.6
O=C(NC1=NCCS1)[C@H](Cc1ccccc1)N1C(=O)c2ccccc2C1=O ... -2.74
COc1cccc(OC)c1C(=O)Nc1nnc(C(C)C)s1 ... -1.98

Entry COc1ccc(CNS(=O)(=O)c2cc(-c3cc(C)no3)ccc2C(C)C)cc1 has what max response?
-0.908
